molecular target: Probable G-protein coupled receptor 34 (Homo sapiens, UniProt Q9UPC5); assay: Antagonist activity at GPR34 (unknown origin) by Glosensor cAMP assay; format: functional
Sequence (Q9UPC5 whole entry): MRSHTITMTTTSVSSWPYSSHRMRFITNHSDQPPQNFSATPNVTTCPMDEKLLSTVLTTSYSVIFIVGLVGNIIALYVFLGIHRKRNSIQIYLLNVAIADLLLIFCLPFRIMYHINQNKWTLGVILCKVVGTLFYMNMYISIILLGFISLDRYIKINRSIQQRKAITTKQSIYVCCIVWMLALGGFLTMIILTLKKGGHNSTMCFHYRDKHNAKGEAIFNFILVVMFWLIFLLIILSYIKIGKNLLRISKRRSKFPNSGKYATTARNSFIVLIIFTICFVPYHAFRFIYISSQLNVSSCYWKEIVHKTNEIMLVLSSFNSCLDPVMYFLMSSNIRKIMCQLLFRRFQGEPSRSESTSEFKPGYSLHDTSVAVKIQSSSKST
Catalogue of IC50 values

Completed entries (count: 8):
smiles-structure	IC50
O=C(COc1cccnc1)N[C@@H](Cc1ccc(OCc2ccccc2)cc1)C(=O)O	> 30 µM
O=C(COc1ccc(Cl)cc1)N[C@@H](Cc1ccc(OCc2ccccc2)cc1)C(=O)O	> 30 µM
O=C(COc1ccc(-c2cccc(Cl)c2)cc1)N[C@@H](Cc1ccc(O)cc1)C(=O)O	> 30 µM
O=C(COc1ccc(-c2cccc(Cl)c2)cc1)N[C@@H](Cc1ccc(OCc2ccccc2)cc1)C(=O)O	0.68 µM
O=C(COc1ccc(-c2cccc(C(F)(F)F)c2)cc1)N[C@@H](Cc1ccc(OCc2ccccc2)cc1)C(=O)O	1.31 µM
O=C(COc1ccc(-c2ccccc2F)cc1)N[C@@H](Cc1ccc(OCc2ccccc2)cc1)C(=O)O	> 30 µM
C[C@H](NC(=O)COc1ccc(-c2cccc(Cl)c2)cc1)C(=O)O	> 30 µM
O=C(COc1ccc(-c2cccc(F)c2)cc1)N[C@@H](Cc1ccc(OCc2ccccc2)cc1)C(=O)O	1.28 µM

Return reported IC50 for target or system Probable G-protein coupled receptor 34 (Homo sapiens, UniProt Q9UPC5), item NC(=O)[C@H](Cc1ccc(OCc2ccccc2)cc1)NC(=O)COc1ccc(-c2cccc(Cl)c2)cc1 .
> 30 µM

====

target: C-X-C chemokine receptor type 5 (Homo sapiens, UniProt P32302); test: Antagonist activity at CXCR5 (unknown origin); format: functional
Sequence (P32302 whole entry): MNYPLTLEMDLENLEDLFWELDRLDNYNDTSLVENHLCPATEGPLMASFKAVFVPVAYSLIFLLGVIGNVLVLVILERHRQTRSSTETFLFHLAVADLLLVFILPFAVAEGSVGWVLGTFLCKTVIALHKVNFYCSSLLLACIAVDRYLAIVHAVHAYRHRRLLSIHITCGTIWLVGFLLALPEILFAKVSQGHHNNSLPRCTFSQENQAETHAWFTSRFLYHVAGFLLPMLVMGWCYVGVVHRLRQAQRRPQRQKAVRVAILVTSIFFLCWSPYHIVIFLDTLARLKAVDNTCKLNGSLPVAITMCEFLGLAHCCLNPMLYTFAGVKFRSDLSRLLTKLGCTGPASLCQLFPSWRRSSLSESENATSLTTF
pEC50: −log10 of the molar value.
attribute-measured: pEC50

Answer with the recorded pEC50 for the molecule listed here: O=C(COc1ccc(-c2cccc(Cl)c2)cc1)N[C@@H](Cc1ccc(OCc2ccccc2)cc1)C(=O)O
< 5.00

====

assay: Cytotoxicity against human LX2 cells incubated for 72 hrs by MTT assay; format: toxicity, cell-based; details: LX-2 cells
attribute-measured: IC50 at 72 h

Answer with the recorded IC50 at 72 h for the compound listed here: O=C(COc1ccc(-c2cccc(Cl)c2)cc1)N[C@@H](Cc1ccc(OCc2ccccc2)cc1)C(=O)O
> 30 µM

====

assay: Cytotoxicity against human BEAS-2B cells incubated for 72 hrs by MTT assay; format: toxicity, cell-based
attribute-measured: IC50 at 72 h

Answer with the recorded IC50 at 72 h for the compound listed here: O=C(COc1ccc(-c2cccc(Cl)c2)cc1)N[C@@H](Cc1ccc(OCc2ccccc2)cc1)C(=O)O
> 30 µM

====

Molecular target: Lysophosphatidic acid receptor 3 (Homo sapiens)
Sequence (Q9UBY5 whole entry): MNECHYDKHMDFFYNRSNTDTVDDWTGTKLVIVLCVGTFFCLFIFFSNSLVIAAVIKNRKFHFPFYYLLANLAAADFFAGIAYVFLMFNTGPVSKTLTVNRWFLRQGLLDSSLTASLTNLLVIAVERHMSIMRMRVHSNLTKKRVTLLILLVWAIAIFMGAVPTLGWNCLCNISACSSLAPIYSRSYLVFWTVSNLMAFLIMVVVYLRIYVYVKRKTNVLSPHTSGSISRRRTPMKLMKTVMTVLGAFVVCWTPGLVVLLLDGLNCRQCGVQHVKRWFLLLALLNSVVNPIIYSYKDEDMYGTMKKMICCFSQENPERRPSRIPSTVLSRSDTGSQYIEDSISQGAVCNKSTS
Test: Antagonist activity at LPAR3 (unknown origin)
Type: functional
pEC50: −log10 of the molar value.
attribute-measured: pEC50

Answer with the recorded pEC50 for the molecule listed here: O=C(COc1ccc(-c2cccc(Cl)c2)cc1)N[C@@H](Cc1ccc(OCc2ccccc2)cc1)C(=O)O
< 5.00
